target-under-test: Transient receptor potential cation channel subfamily V member 1 (Homo sapiens, UniProt Q8NER1)
Sequence (Q8NER1 whole entry): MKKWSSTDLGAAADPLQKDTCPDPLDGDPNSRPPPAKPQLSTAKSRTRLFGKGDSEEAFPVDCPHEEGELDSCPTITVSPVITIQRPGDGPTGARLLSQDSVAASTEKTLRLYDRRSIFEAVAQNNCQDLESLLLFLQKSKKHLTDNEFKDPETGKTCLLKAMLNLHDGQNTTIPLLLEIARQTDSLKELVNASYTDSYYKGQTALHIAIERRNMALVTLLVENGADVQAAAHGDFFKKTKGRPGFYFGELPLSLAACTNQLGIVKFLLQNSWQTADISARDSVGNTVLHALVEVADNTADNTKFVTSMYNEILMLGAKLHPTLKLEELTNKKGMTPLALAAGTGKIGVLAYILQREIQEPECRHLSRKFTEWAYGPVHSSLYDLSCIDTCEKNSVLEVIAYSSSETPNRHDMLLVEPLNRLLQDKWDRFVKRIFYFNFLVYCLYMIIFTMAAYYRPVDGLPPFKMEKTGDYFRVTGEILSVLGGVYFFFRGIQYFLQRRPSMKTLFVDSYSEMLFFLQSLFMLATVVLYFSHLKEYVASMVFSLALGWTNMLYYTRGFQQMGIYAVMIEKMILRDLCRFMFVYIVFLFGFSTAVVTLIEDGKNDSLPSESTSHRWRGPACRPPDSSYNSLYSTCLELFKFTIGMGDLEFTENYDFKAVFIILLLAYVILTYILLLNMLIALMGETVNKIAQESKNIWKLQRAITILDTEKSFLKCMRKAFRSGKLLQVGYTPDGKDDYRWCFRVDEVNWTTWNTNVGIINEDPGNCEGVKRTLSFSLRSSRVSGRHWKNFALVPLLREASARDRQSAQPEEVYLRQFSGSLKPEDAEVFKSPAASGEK
procedure-summary: Agonist activity at human TRPV1 receptor expressed in HEK293 cells assessed as increase in intracellular Ca2+ concentration by spectrofluorimetric analysis relative to ionomycin
Type: cell-based
metric: Efficacy (%)

Past entries and their recorded results:
{"compound": "CN(CCCCc1ccccc1)C(=O)n1nnnc1Cc1ccc(-c2ccccc2)cc1", "metric": "Efficacy", "readout-unit": "%", "test-result": 45.7}
{"compound": "Cc1ccc(-c2ccc(Cc3nnnn3C(=O)N(C)C)cc2)cc1", "metric": "Efficacy", "readout-unit": "%", "test-result": 28}
{"compound": "CN(C(=O)n1nnnc1Cc1ccc(-c2ccccc2)cc1)C1CCCCC1", "metric": "Efficacy", "readout-unit": "%", "test-result": 45.6}
{"compound": "Cc1ccc(-c2ccc(Cc3nnn(C(=O)N(C)C)n3)cc2)cc1", "metric": "Efficacy", "readout-unit": "%", "test-result": 33.3}
{"compound": "CN(C)C(=O)n1nnnc1Cc1ccc(-c2cccc(O)c2)cc1", "metric": "Efficacy", "readout-unit": "%", "test-result": 20}

(P) CN(C)C(=O)n1nnnc1Cc1ccc(-c2cccc(C(N)=O)c2)cc1
(Q) CN(Cc1ccc2ccccc2c1)C(=O)n1nnnc1Cc1ccc(-c2ccccc2)cc1
(R) O=C(N1CCCCC1)n1nnnc1Cc1ccc(-c2ccccc2)cc1
Query: Hey, quick one: sort these by Efficacy, largest value first please. Please list each label once, in the requested order.
Result: R, Q, P
